Where these numbers come from: ChEMBL document CHEMBL1126073

Recorded Tracer by entry
# TEST: Percentage of tracer or metabolite (CO2) in baboon plasma at 1 min after injection of the compound
# Assay type: ADME
# SETUP CONDITIONS: cercopithecidae

{"COMPOUND": "COC(=O)C1C2CCC(C[C@@H]1OC(=O)c1ccc(I)cc1)N2C (some centres undefined)", "Tracer": "1%"}
{"COMPOUND": "COC(=O)C1C2CCC(C[C@@H]1OC(=O)c1cccc(I)c1)N2C (some centres undefined)", "Tracer": "3%"}
{"COMPOUND": "COC(=O)C1C2CCC(C[C@@H]1OC(=O)c1ccccc1I)N2C (some centres undefined)", "Tracer": "-7%"}
{"COMPOUND": "COC(=O)[C@H]1[C@@H](OC(=O)c2ccccc2)C[C@@H]2CC[C@H]1N2C", "Tracer": "6%"}

---

# TEST: Percentage of tracer or metabolite (CO2) in baboon plasma at 10 min after injection of the compound
# Type: ADME, cell-free
# SETUP CONDITIONS: cercopithecidae
Recorded Tracer by entry
MEASURED PROPERTY: Tracer

{"COMPOUND": "COC(=O)C1C2CCC(C[C@@H]1OC(=O)c1ccccc1I)N2C (some centres undefined)", "REPORTED RESULT": "21%"}
{"COMPOUND": "COC(=O)C1C2CCC(C[C@@H]1OC(=O)c1cccc(I)c1)N2C (some centres undefined)", "REPORTED RESULT": "33%"}
{"COMPOUND": "COC(=O)[C@H]1[C@@H](OC(=O)c2ccccc2)C[C@@H]2CC[C@H]1N2C", "REPORTED RESULT": "37%"}
{"COMPOUND": "COC(=O)C1C2CCC(C[C@@H]1OC(=O)c1ccc(I)cc1)N2C (some centres undefined)", "REPORTED RESULT": "21%"}

---

# TEST: Percentage of tracer or metabolite (unchanged) in baboon plasma at 1 min after injection of the compound
# Type: ADME, cell-free
# SETUP CONDITIONS: cercopithecidae
Recorded Tracer by entry
MEASURED PROPERTY: Tracer (%)

{"COMPOUND": "COC(=O)C1C2CCC(C[C@@H]1OC(=O)c1ccccc1I)N2C (some centres undefined)", "REPORTED RESULT": 97}
{"COMPOUND": "COC(=O)[C@H]1[C@@H](OC(=O)c2ccccc2)C[C@@H]2CC[C@H]1N2C [COCAINE]", "REPORTED RESULT": 70}
{"COMPOUND": "COC(=O)C1C2CCC(C[C@@H]1OC(=O)c1cccc(I)c1)N2C (some centres undefined)", "REPORTED RESULT": 95}
{"COMPOUND": "COC(=O)C1C2CCC(C[C@@H]1OC(=O)c1ccc(I)cc1)N2C (some centres undefined)", "REPORTED RESULT": 90}

---

Recorded Tracer by entry
# TEST: Percentage of tracer or metabolite(EME) in baboon plasma at 5 min after injection of the compound
# Type: ADME, cell-free
# SETUP CONDITIONS: cercopithecidae
MEASURED PROPERTY: Tracer (%)

{"COMPOUND": "COC(=O)C1C2CCC(C[C@@H]1OC(=O)c1ccc(I)cc1)N2C (some centres undefined)", "MEASURED PROPERTY": "Tracer", "UNITS SYMBOL": "%", "REPORTED RESULT": 2.5}
{"COMPOUND": "COC(=O)C1C2CCC(C[C@@H]1OC(=O)c1ccccc1I)N2C (some centres undefined)", "MEASURED PROPERTY": "Tracer", "UNITS SYMBOL": "%", "REPORTED RESULT": 0.2}
{"COMPOUND": "COC(=O)C1C2CCC(C[C@@H]1OC(=O)c1cccc(I)c1)N2C (some centres undefined)", "MEASURED PROPERTY": "Tracer", "UNITS SYMBOL": "%", "REPORTED RESULT": 3}
{"COMPOUND": "COC(=O)[C@H]1[C@@H](OC(=O)c2ccccc2)C[C@@H]2CC[C@H]1N2C", "MEASURED PROPERTY": "Tracer", "UNITS SYMBOL": "%", "REPORTED RESULT": 13}

---

# TEST: Percentage unmetabolized in baboon plasma at 30 min after administration.
# Format: functional, Cercopithecidae
MEASURED PROPERTY: Unmetabolized

{"MOLECULE": "COC(=O)C1C2CCC(C[C@@H]1OC(=O)c1ccccc1I)N2C (some centres undefined)", "MEASURED PROPERTY": "Unmetabolized", "REPORTED RESULT": "33%"}
{"MOLECULE": "COC(=O)C1C2CCC(C[C@@H]1OC(=O)c1cccc(I)c1)N2C (some centres undefined)", "MEASURED PROPERTY": "Unmetabolized", "REPORTED RESULT": "36%"}
{"MOLECULE": "COC(=O)[C@H]1[C@@H](OC(=O)c2ccccc2)C[C@@H]2CC[C@H]1N2C", "MEASURED PROPERTY": "Unmetabolized", "REPORTED RESULT": "17%"}
{"MOLECULE": "COC(=O)C1C2CCC(C[C@@H]1OC(=O)c1ccc(I)cc1)N2C (some centres undefined)", "MEASURED PROPERTY": "Unmetabolized", "REPORTED RESULT": "22%"}

---

Recorded Tracer by entry
# TEST: Percentage of tracer or metabolite (unchanged) in baboon plasma at 10 min after injection of the compound
# Assay type: ADME, cell-free
# SETUP CONDITIONS: cercopithecidae

{"COMPOUND": "COC(=O)C1C2CCC(C[C@@H]1OC(=O)c1ccccc1I)N2C (some centres undefined)", "Tracer (%)": 48}
{"COMPOUND": "COC(=O)C1C2CCC(C[C@@H]1OC(=O)c1cccc(I)c1)N2C (some centres undefined)", "Tracer (%)": 60}
{"COMPOUND": "COC(=O)[C@H]1[C@@H](OC(=O)c2ccccc2)C[C@@H]2CC[C@H]1N2C [COCAINE]", "Tracer (%)": 31}
{"COMPOUND": "COC(=O)C1C2CCC(C[C@@H]1OC(=O)c1ccc(I)cc1)N2C (some centres undefined)", "Tracer (%)": 48}

---

Recorded Tracer by entry
# TEST: Percentage of tracer or metabolite (unchanged) in baboon plasma at 30 min after injection of the compound
# Assay type: ADME, cell-free
# SETUP CONDITIONS: cercopithecidae, 0.5 h

{"COMPOUND": "COC(=O)C1C2CCC(C[C@@H]1OC(=O)c1cccc(I)c1)N2C (some centres undefined)", "UNITS SYMBOL": "%", "Tracer": 36}
{"COMPOUND": "COC(=O)[C@H]1[C@@H](OC(=O)c2ccccc2)C[C@@H]2CC[C@H]1N2C [COCAINE]", "UNITS SYMBOL": "%", "Tracer": 17}
{"COMPOUND": "COC(=O)C1C2CCC(C[C@@H]1OC(=O)c1ccccc1I)N2C (some centres undefined)", "UNITS SYMBOL": "%", "Tracer": 33}
{"COMPOUND": "COC(=O)C1C2CCC(C[C@@H]1OC(=O)c1ccc(I)cc1)N2C (some centres undefined)", "UNITS SYMBOL": "%", "Tracer": 22}

---

# TEST: Percentage of tracer or metabolite (acid metabolites) in baboon plasma at 5 min after injection of the compound
# Type: ADME, cell-free
# SETUP CONDITIONS: cercopithecidae
Recorded Tracer by entry

{"COMPOUND": "COC(=O)C1C2CCC(C[C@@H]1OC(=O)c1ccccc1I)N2C (some centres undefined)", "Tracer, %": 15}
{"COMPOUND": "COC(=O)[C@H]1[C@@H](OC(=O)c2ccccc2)C[C@@H]2CC[C@H]1N2C", "Tracer, %": 22}
{"COMPOUND": "COC(=O)C1C2CCC(C[C@@H]1OC(=O)c1ccc(I)cc1)N2C (some centres undefined)", "Tracer, %": 17}
{"COMPOUND": "COC(=O)C1C2CCC(C[C@@H]1OC(=O)c1cccc(I)c1)N2C (some centres undefined)", "Tracer, %": 18}

---

# TEST: Clearance from plasma(with matabolite-corrected plasma radioactivity-time integral) at 30 min after administration.
# Type: ADME, cell-free
# SETUP CONDITIONS: cercopithecidae, 0.5 h
MEASURED PROPERTY: Plasma integral

{"COMPOUND": "COC(=O)C1C2CCC(C[C@@H]1OC(=O)c1ccccc1I)N2C (some centres undefined)", "REPORTED RESULT": "6.1 uCi min ml-1"}
{"COMPOUND": "COC(=O)[C@H]1[C@@H](OC(=O)c2ccccc2)C[C@@H]2CC[C@H]1N2C", "REPORTED RESULT": "2.1 uCi min ml-1"}
{"COMPOUND": "COC(=O)C1C2CCC(C[C@@H]1OC(=O)c1ccc(I)cc1)N2C (some centres undefined)", "REPORTED RESULT": "1.8 uCi min ml-1"}
{"COMPOUND": "COC(=O)C1C2CCC(C[C@@H]1OC(=O)c1cccc(I)c1)N2C (some centres undefined)", "REPORTED RESULT": "2.8 uCi min ml-1"}
